B1: Transcription factor 12 (Homo sapiens), Q99081 (parent)
chain: MNPQQQRMAAIGTDKELSDLLDFSAMFSPPVNSGKTRPTTLGSSQFSGSGIDERGGTTSWGTSGQPSPSYDSSRGFTDSPHYSDHLNDSRLGAHEGLSPTPFMNSNLMGKTSERGSFSLYSRDTGLPGCQSSLLRQDLGLGSPAQLSSSGKPGTAYYSFSATSSRRRPLHDSAALDPLQAKKVRKVPPGLPSSVYAPSPNSDDFNRESPSYPSPKPPTSMFASTFFMQDGTHNSSDLWSSSNGMSQPGFGGILGTSTSHMSQSSSYGNLHSHDRLSYPPHSVSPTDINTSLPPMSSFHRGSTSSSPYVAASHTPPINGSDSILGTRGNAAGSSQTGDALGKALASIYSPDHTSSSFPSNPSTPVGSPSPLTGTSQWPRPGGQAPSSPSYENSLHSLQSRMEDRLDRLDDAIHVLRNHAVGPSTSLPAGHSDIHSLLGPSHNAPIGSLNSNYGGSSLVASSRSASMVGTHREDSVSLNGNHSVLSSTVTTSSTDLNHKTQENYRGGLQSQSGTVVTTEIKTENKEKDENLHEPPSSDDMKSDDESSQKDIKVSSRGRTSSTNEDEDLNPEQKIEREKERRMANNARERLRVRDINEAFKELGRMCQLHLKSEKPQTKLLILHQAVAVILSLEQQVRERNLNPKAACLKRREEEKVSAVSAEPPTTLPGTHPGLSETTNPMGHM
partner: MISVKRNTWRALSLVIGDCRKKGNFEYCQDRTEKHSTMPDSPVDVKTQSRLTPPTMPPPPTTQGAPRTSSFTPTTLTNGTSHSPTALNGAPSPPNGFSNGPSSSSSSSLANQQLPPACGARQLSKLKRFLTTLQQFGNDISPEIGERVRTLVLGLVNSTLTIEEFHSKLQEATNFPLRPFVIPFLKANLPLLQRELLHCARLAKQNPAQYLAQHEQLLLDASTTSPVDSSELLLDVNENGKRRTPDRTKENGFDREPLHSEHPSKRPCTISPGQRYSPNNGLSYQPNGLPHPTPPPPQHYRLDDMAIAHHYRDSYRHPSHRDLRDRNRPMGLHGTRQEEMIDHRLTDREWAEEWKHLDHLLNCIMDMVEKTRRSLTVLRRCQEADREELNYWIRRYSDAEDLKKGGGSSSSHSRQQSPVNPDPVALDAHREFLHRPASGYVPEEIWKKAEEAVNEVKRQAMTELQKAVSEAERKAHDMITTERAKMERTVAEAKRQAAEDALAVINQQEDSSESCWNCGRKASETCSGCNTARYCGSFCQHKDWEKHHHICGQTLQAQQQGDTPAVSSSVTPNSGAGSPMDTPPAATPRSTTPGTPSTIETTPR

- Variants of: B1
- Recorded Conditions: with mtg8_human RUNX1T1, Q06455
Measured Quantity: effect of a mutation on the interaction

Please review the following examples before continuing.
>>> result_value("A458V")
"with no effect"
>>> result_value("N479S")
"with no effect"
>>> result_value("D565V")
"with no effect"
>>> result_value("A174V")
"with no effect"
>>> result_value("I11M")
"with no effect"

Prompt: Look up effect of a mutation on the interaction: `G300S`
Response: with no effect

Prompt: One more variant: `V31A`
Response: with no effect

Prompt: Same for `L483R`
Response: with no effect

Prompt: Queued: `G64R`
Response: with no effect
